# subjectOfTest: T1, Rluc-ADGRG2-ΔGPS-β N667A (mouse, UniProt Q8CJ12-3 38-995, N667A)
# T1 construct: ADGRG2 (GPR64), mouse, ADGRG2-ΔGPS-β: the entire ECD removed; source: HEK293, transfected, on cells; not shown: Rluc, N-terminal, kept
# protocolSummary: FRET or BRET; HEK293 cells transfected with Rluc-ADGRG2-ΔGPS-β WT or mutants, stimulated by increasing concentrations of FITC-conjugated VPM-p15; saturation curves fitted with GraphPad; each experiment repeated 6 times
# experimentalSetup: one partner purified
Non-standard residues stand in square brackets, D forms with d. Primed or numbered codes have the meaning given here. No end group written: not given here. Phe(4-Me) = Cc1ccc(C[C@H](N)C(=O)O)cc1; FITC′ = not defined here

| binder | EC50 [nM] |
| --- | --- |
| VS[Phe(4-Me)]GILLDLSRTSLP-{FITC′} [FITC-conjugated VPM-p15 (ADGRG2 Stachel peptide p15 T1V/F3Phe(4-Me))] | 913 |
